- System: UCH-2 cell line
- method.description: MTT cell proliferation assay, UCH-2
- Assay type: cell-based
- conditions: UCH2, incubation approximately 64-72 hours
pIC50: −log10 of the molar value.

- compound: "Nc1ccc(/C=C/C(=O)NCC2Cc3cc(-c4ccc(C(=O)N5CC(F)(F)C5)cc4)cc(Cl)c3O2)cn1 (stereo not shown)"
  pIC50: "< 4.52"

###

# IC50 listing for each entry below
- Tested on: 3T3 cells
- method.description: MTT cell proliferation assay, 3T3
- Assay type: cell-based, mouse
- conditions: Mus musculus, NIH3T3, 3T3 cells, approximately 64-72 hours incubation; read-out: MTT Assay IC50, 3T3
- Experimental: The MTT cell proliferation assay was used to study the cytotoxic properties of the compounds. The assay was performed according to the method described by Roche Molecular Biochemicals, with minor modifications. […] After solubilization, the formazan dye was quantitated using a scanning multi-well spectrophotometer (ELISA reader). […] All optical densities were measured at 490 nm using a Vmax Kinetic Microplate Reader (Molecular Devices). […]

- molecule: "Nc1ccc(/C=C/C(=O)NCC2Cc3cc(-c4ccc(C(=O)CN5CCOCC5)cc4)cc(Cl)c3O2)cn1 (stereo not shown) [Compound 906]"
  IC50: "0.1 to 5 µM"
- molecule: "CC(=O)c1ccc(-c2cc(Cl)c3c(c2)CC(CNC(=O)/C=C/c2ccc(N)nc2)O3)s1 (single isomer, unassigned) [Compound 308]"
  IC50: "5 to 30 µM"
- molecule: "CC(C)(O)c1ccc(-c2cc(Cl)c3c(c2)CC(CNC(=O)/C=C/c2cccnc2)O3)s1 (stereo not shown) [Compound 304]"
  IC50: "0.1 to 5 µM"
- molecule: "Nc1ccc(/C=C/C(=O)NCC2Cc3cc(-c4ccc(C(=O)N5CCNCC5)nc4)cc(Cl)c3O2)cn1 (stereo not shown) [Compound 342]"
  IC50: "0.1 to 5 µM"

###

- System: 3T3 cells
- method.description: MTT cell proliferation assay, 3T3
- Format: cell-based, mouse
- conditions: Mus musculus, NIH3T3, 3T3 cells, approximately 64-72 hours incubation; read-out: MTT Assay IC50, 3T3
# IC50 listing for each entry below

- compound: "Nc1ccc(CNC(=O)/C=C/C2Cc3cc(-c4cccc(S(=O)(=O)N5CCOCC5)c4)cc(Cl)c3O2)cn1 (stereo not drawn)"
  IC50: "< 0.1 µM"
- compound: "CC(=O)c1ccc(-c2cc(Cl)c3c(c2)CC(CNC(=O)/C=C(/C)c2cccnc2)O3)s1 (stereo not drawn)"
  IC50: "> 30 µM"
- compound: "CC(=O)c1ccc(-c2cc(Cl)c3c(c2)CC(CNC(=O)/C=C/c2ccc(N)nc2)O3)o1 (stereo not drawn)"
  IC50: "5 to 30 µM"
- compound: "CC(=O)c1ccc(-c2cc(Cl)c3c(c2)CC(CNC(=O)/C=C/c2ccc(N(C)C)nc2)O3)s1 (stereo not drawn)"
  IC50: "> 30 µM"
- compound: "CNc1ccc(/C=C/C(=O)NCC2Cc3cc(-c4ccc(C(C)=O)s4)cc(Cl)c3O2)cn1 (stereo not drawn)"
  IC50: "5 to 30 µM"
- compound: "CC(=O)c1ccc(Oc2cc(Cl)c3c(c2)CC(CNC(=O)/C=C/c2cccnc2)O3)s1 (stereo not drawn)"
  IC50: "0.1 to 5 µM"
- compound: "Nc1ccc(/C=C/C(=O)NCC2Cc3cc(-c4ccc(C(=O)N5CCOCC5)cc4)cc(C(F)(F)F)c3O2)cn1 (stereo not drawn)"
  IC50: "< 0.1 µM"
- compound: "Nc1ccc(CNC(=O)/C=C/C2Cc3cc(-c4ccc(C(=O)N5CC[C@H](F)C5)cc4)cc(Cl)c3O2)cn1 (stereo partly drawn)"
  IC50: "5 to 30 µM"
- compound: "Nc1ccc(/C=C/C(=O)NCC2Cc3cc(-c4cc(F)c(C(=O)N5CCOCC5)c(F)c4)cc(Cl)c3O2)cn1 (stereo not drawn)"
  IC50: "0.1 to 5 µM"
- compound: "Nc1ccc(CNC(=O)/C=C/C2Cc3cc(-c4ccc(C(=O)N5CC(F)C5)cc4)cc(Cl)c3O2)cn1 (stereo not drawn)"
  IC50: "0.1 to 5 µM"
- compound: "Cc1cc(-c2cc(Cl)c3c(c2)CC(CNC(=O)/C=C/c2ccc(N)nc2)O3)ccc1C(=O)N1CCOCC1 (stereo not drawn)"
  IC50: "0.1 to 5 µM"
- compound: "CC(=O)c1ccc(-c2cc(Cl)c3c(c2)CC(CNC(=O)/C=C(\\C)c2cccnc2)O3)s1 (stereo not drawn)"
  IC50: "> 30 µM"
- compound: "CC(=O)c1ccc(-c2cc(Cl)c3c(c2)CC(CNC(=O)/C=C/c2coc(C)n2)O3)s1 (stereo not drawn)"
  IC50: "> 30 µM"
- compound: "Cc1noc(-c2ccccc2)c1-c1cc(Cl)c2c(c1)CC(CNC(=O)/C=C/c1ccc(N)nc1)O2 (stereo not drawn)"
  IC50: "0.1 to 5 µM"
- compound: "Nc1ccc(/C=C/C(=O)NCC2Cc3cc(-c4ccc(C(=O)N5CC(F)(F)C5)cc4)cc(Cl)c3O2)cn1 (stereo not drawn)"
  IC50: "5 to 30 µM"
